The following compounds each carry a recorded IC50 for E. coli FabI (Escherichia coli).

- compound: "C=CC(C)(C)C12C=C(O)C(=O)N3/C(=C/c4cnc[nH]4)C(=O)NC31Nc1c(Br)cccc12 (stereo not shown) [Compound 7]"
  qualifying.sign: ">"
  IC50 [µM]: 200
- compound: "C=CC(C)(C)C12C=C(OC)C(=O)N3/C(=C/c4cnc[nH]4)C(=O)NC31N(OC)c1ccccc12 (stereo not shown) [Compound 3, oxaline]"
  qualifying.sign: "="
  IC50 [µM]: 38.8
- compound: "C=CC(C)(C)C12C=C(O)C(=O)N3/C(=C/c4cnc[nH]4)C(=O)NC31N(OC)c1ccccc12 (stereo not shown) [Compound 1, meleagrin]"
  qualifying.sign: "="
  IC50 [µM]: 33.2
- compound: "C=CC(C)(C)C12C=C(O)C(=O)N3/C(=C/c4cnc[nH]4)C(=O)NC31Nc1ccccc12 (stereo not shown) [Compound 2, glandicolin A]"
  qualifying.sign: "="
  IC50 [µM]: 49.7
- compound: "C=CC(C)(C)C12C=C(OC)C(=O)N3/C(=C/c4cnc[nH]4)C(=O)N(C)C31Nc1ccccc12 (stereo not shown) [Compound 6, O,N^14-dimethylglandicolin]"
  qualifying.sign: "="
  IC50 [µM]: 15.4
- compound: "C=CC(C)(C)C12C=C(O)C(=O)N3/C(=C/c4cnc[nH]4)C(=O)N(C)C31N(OC)c1ccccc12 (stereo not shown) [Compound 4, N^14-methylmeleagrin]"
  qualifying.sign: "="
  IC50 [µM]: 33.1
- compound: "C=CC(C)(C)C12C=C(OC)C(=O)N3/C(=C/c4cnc[nH]4)C(=O)N(C)C31N(OC)c1ccccc12 (stereo not shown) [Compound 5, O,N^14-dimethylmeleagrin]"
  qualifying.sign: "="
  IC50 [µM]: 15.6
